STUDY_SYSTEM: soluble guanylate cyclase (Sus scrofa, UniProt A0A4X1U7N1+A0ACM8Q7I6)
Construct: endogenous in cells; host or cells: primary endothelial cells from pig aorta
Sequence (A0A4X1U7N1 1-619): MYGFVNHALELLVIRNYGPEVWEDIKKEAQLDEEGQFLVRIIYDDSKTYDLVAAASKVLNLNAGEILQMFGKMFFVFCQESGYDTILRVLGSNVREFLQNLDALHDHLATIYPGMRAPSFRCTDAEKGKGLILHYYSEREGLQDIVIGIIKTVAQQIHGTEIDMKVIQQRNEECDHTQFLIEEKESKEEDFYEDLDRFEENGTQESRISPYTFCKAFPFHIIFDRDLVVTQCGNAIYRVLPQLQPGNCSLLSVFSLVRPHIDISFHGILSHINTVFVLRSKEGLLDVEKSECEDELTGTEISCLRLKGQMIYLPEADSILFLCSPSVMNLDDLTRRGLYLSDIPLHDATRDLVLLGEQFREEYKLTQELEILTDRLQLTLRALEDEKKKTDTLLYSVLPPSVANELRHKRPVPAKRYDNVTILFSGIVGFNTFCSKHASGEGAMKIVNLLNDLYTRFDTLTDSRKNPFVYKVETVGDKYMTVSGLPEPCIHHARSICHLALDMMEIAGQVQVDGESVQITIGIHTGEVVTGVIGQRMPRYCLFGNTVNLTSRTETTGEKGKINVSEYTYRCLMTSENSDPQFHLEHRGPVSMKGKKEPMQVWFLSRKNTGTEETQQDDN
Sequence (A0ACM8Q7I6 1-688): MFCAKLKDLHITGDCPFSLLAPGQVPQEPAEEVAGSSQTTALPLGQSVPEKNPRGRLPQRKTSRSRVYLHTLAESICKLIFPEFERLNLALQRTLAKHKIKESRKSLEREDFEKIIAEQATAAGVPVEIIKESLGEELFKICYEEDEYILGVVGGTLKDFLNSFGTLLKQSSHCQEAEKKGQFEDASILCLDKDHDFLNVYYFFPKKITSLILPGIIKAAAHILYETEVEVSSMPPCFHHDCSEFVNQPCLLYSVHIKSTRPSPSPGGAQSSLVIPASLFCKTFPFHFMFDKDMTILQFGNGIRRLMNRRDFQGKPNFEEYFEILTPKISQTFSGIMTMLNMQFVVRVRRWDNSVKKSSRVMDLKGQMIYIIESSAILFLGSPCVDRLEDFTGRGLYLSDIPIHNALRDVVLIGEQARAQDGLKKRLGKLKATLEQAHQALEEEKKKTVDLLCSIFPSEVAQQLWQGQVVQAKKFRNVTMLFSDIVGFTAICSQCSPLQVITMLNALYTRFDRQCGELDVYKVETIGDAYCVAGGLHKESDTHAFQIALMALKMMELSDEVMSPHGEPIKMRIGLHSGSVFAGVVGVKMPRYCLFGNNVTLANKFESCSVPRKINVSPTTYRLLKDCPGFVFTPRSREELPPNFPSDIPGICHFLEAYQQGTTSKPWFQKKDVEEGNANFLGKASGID
ASSAY_TEXT: Stimulation of soluble guanylate cyclase in primary endothelial cells (intracellular cGMP, radioimmunological)
Type: cell-based
EXPERIMENTAL_CONTEXT: 10 min, embodiment IV; test substance 1 μM, 10-minute incubation, primary pig aortic endothelial cells, with or without SNP 1 μM (not stated which); read-out: % increase in cGMP
MEASURED_ENDPOINT: activation at 1 µM (%)

| MOLECULE | STUDY_SYSTEM | MEASURED_ENDPOINT | UNIT_OF_MEASUREMENT | DATA_VALUE |
| --- | --- | --- | --- | --- |
| O=Cc1ccc(-c2nn(Cc3ccccc3)c3ccccc23)o1 [IV-138, 1-Benzyl-3-(5-formylfuran-2-yl)-indazole] | soluble guanylate cyclase (Sus scrofa, UniProt A0A4X1U7N1+A0ACM8Q7I6) | activation at 1 µM | % | 324 |

[A] O=Cc1ccc(-c2nn(Cc3ccc(F)cc3)c3ccccc23)o1 [IV-148]
[B] OCc1coc(-c2nn(Cc3ccccc3)c3ccccc23)c1 [IV-164]
Query: Param pair: A , B . Output: the one whose activation at 1 µM is numerically greater. Answer format: the label of the selected item.
Result: A

----------
STUDY_SYSTEM: soluble guanylate cyclase (Sus scrofa, UniProt A0A4X1U7N1+A0ACM8Q7I6)
Construct: endogenous in cells; host or cells: primary endothelial cells from pig aorta
ASSAY_TEXT: Stimulation of soluble guanylate cyclase in primary endothelial cells (intracellular cGMP, radioimmunological)
Assay type: cell-based
EXPERIMENTAL_CONTEXT: 10 min, embodiment IV; test substance 1 μM, 10-minute incubation, primary pig aortic endothelial cells, with or without SNP 1 μM (not stated which); read-out: % increase in cGMP
MEASURED_ENDPOINT: activation at 1 µM (%)

Reference set (2 entries):
| COMPOUND | activation at 1 µM / % |
| --- | --- |
| OCc1ccc(-c2nn(Cc3c(F)cccc3F)c3ccccc23)o1 | 256 |
| CC(=O)c1ccc(-c2nn(Cc3ccccc3)c3ccccc23)o1 | 619 |

[A] O/N=C/c1ccc(-c2nn(Cc3ccccc3)c3ccccc23)o1
[B] Cc1cc(-c2nn(Cc3ccccc3)c3ccccc23)oc1CO
Query: Param pair: A , B . Output: the one whose activation at 1 µM is numerically greater. Answer format: the label of the selected item.
Result: B

----------
STUDY_SYSTEM: soluble guanylate cyclase (Sus scrofa, UniProt A0A4X1U7N1+A0ACM8Q7I6)
Construct: endogenous in cells; host or cells: primary endothelial cells from pig aorta
ASSAY_TEXT: Stimulation of soluble guanylate cyclase in primary endothelial cells (intracellular cGMP, radioimmunological)
Format: cell-based
EXPERIMENTAL_CONTEXT: 10 min, embodiment II; test substance 1 μM, 10-minute incubation, primary pig aortic endothelial cells, with or without SNP 1 μM (not stated which); read-out: % increase in cGMP
MEASURED_ENDPOINT: activation at 1 µM (%)

| SMILES_STRUCTURE | DATA_VALUE |
| --- | --- |
| Cc1cccc(-c2nn(Cc3ccccc3)c3ccccc23)n1 | 268 |
| Cc1cncc(-c2nn(Cc3ccccc3)c3ccccc23)n1 | 233 |

[I] OCCNc1nccc(-c2nn(Cc3ccccc3)c3ccccc23)n1
[II] OCc1cccc(-c2nn(Cc3ccccc3)c3ccccc23)n1
Query: Please compare: I and II . Report which one has the smaller activation at 1 µM value. Answer format: the label of the selected item.
Result: II
(II: 225%, I: 397%)
